Biological target: human IL-6 (human, UniProt P05231 30-212)
Sequence (P05231 30-212 limits assumed): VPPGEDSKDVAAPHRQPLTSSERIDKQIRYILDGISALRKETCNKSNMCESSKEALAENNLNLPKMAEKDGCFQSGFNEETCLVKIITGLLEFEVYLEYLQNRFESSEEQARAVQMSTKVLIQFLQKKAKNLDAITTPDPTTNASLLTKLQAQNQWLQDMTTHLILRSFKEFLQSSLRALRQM
Assay: SPR Biacore, supernatant, Protein A capture, 37 C
Experimental: Those four positions were selected based on their tolerance for mutations as observed in bacterial and mammalian screens. […] These cultures were centrifuged and supernatants containing secreted antibodies were harvested and diluted in HBS-EP+ running buffer (1:20 ratio). Antibodies were captured on a Protein A chip (GE) by injecting 1:20 cell supernatant dilutions at 10 μL/min for 60 seconds. […]
METRIC: kon (M⁻¹ s⁻¹)
The figure you give is taken to be in M⁻¹ s⁻¹; do not add the unit.

kon measured on Anti-IL-6 antibody, heavy chain S35H, G66D, Q99T / light chain M32L, M50D, N52S, M88Q (antibody, IgG1, V domains shown, IgG1; variable domains only; VL is variant III) VH: EVQLVESGGGLVQPGGSLRLSCAASGFTFSPFAMHWVRQAPGKGLEWVAKISPGGSWTYYSDTVTDRFTFSLDTSKSTAYLQMNSLRAEDTAVYYCARTLWGYYALDIWGQGTLVTVSS VL: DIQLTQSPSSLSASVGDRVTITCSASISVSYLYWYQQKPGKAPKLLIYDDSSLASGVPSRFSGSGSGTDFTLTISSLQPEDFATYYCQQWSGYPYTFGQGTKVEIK = 7.52e+06

kon measured on Anti-IL-6 antibody, heavy chain S35H, G66D, Q99K / light chain M32L, M50D, N52S, M88Q (antibody, IgG1, V domains shown, IgG1; variable domains only; VL is variant III) VH: EVQLVESGGGLVQPGGSLRLSCAASGFTFSPFAMHWVRQAPGKGLEWVAKISPGGSWTYYSDTVTDRFTFSLDTSKSTAYLQMNSLRAEDTAVYYCARKLWGYYALDIWGQGTLVTVSS VL: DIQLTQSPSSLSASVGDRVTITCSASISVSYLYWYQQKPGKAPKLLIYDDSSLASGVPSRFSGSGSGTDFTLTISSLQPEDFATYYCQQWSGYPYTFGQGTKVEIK = 3.97e+06

kon measured on Anti-IL-6 antibody, heavy chain S35H, G66D, Q99I / light chain M32L, M50D, N52S, M88Q (antibody, IgG1, V domains shown, IgG1; variable domains only; VL is variant III) VH: EVQLVESGGGLVQPGGSLRLSCAASGFTFSPFAMHWVRQAPGKGLEWVAKISPGGSWTYYSDTVTDRFTFSLDTSKSTAYLQMNSLRAEDTAVYYCARILWGYYALDIWGQGTLVTVSS VL: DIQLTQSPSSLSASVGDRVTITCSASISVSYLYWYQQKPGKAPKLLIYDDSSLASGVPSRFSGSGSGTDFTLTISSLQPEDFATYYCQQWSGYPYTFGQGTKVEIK = 5.41e+06

kon measured on Anti-IL-6 antibody, heavy chain S35H, G66D, Q99D / light chain WT (antibody, IgG1, V domains shown, IgG1; variable domains only) VH: EVQLVESGGGLVQPGGSLRLSCAASGFTFSPFAMHWVRQAPGKGLEWVAKISPGGSWTYYSDTVTDRFTFSLDTSKSTAYLQMNSLRAEDTAVYYCARDLWGYYALDIWGQGTLVTVSS VL: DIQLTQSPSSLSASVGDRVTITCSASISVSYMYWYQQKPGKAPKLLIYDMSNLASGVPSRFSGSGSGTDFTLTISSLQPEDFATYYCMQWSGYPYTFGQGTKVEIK = 1.29e+06

kon measured on Anti-IL-6 antibody, heavy chain S35H, G66D, L100V / light chain WT (antibody, IgG1, V domains shown, IgG1; variable domains only) VH: EVQLVESGGGLVQPGGSLRLSCAASGFTFSPFAMHWVRQAPGKGLEWVAKISPGGSWTYYSDTVTDRFTFSLDTSKSTAYLQMNSLRAEDTAVYYCARQVWGYYALDIWGQGTLVTVSS VL: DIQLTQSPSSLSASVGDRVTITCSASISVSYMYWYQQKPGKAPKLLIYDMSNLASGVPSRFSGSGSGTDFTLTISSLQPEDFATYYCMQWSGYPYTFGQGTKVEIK = 2.37e+06

Measured values drawn from patent US20240209076A1 for this set.
